experiment: Cytotoxicity against human FHC cells assessed as cell growth inhibition incubated for 4 days by MTT assay
Some molecules, each annotated with its measured GI50 at 96 h.

{"Chemical string": "N#Cc1c(-c2cccc(Cl)c2Cl)cc(-c2c[nH]c3ccccc23)[nH]c1=O", "GI50 at 96 h": "65.7 µM"}
{"Chemical string": "N#Cc1c(-c2ccc(Cl)cc2Cl)cc(-c2c[nH]c3ccccc23)[nH]c1=O", "GI50 at 96 h": "26.8 µM"}
{"Chemical string": "N#Cc1c(-c2ccc(Cl)c(Cl)c2)cc(-c2c[nH]c3ccccc23)[nH]c1=O", "GI50 at 96 h": "41 µM"}

----------
molecular target: Epidermal growth factor receptor (Homo sapiens, UniProt P00533, T790M); assay: Inhibition of EGFR T790M mutant (unknown origin)
Sequence (P00533 25-1210 T790M limits assumed): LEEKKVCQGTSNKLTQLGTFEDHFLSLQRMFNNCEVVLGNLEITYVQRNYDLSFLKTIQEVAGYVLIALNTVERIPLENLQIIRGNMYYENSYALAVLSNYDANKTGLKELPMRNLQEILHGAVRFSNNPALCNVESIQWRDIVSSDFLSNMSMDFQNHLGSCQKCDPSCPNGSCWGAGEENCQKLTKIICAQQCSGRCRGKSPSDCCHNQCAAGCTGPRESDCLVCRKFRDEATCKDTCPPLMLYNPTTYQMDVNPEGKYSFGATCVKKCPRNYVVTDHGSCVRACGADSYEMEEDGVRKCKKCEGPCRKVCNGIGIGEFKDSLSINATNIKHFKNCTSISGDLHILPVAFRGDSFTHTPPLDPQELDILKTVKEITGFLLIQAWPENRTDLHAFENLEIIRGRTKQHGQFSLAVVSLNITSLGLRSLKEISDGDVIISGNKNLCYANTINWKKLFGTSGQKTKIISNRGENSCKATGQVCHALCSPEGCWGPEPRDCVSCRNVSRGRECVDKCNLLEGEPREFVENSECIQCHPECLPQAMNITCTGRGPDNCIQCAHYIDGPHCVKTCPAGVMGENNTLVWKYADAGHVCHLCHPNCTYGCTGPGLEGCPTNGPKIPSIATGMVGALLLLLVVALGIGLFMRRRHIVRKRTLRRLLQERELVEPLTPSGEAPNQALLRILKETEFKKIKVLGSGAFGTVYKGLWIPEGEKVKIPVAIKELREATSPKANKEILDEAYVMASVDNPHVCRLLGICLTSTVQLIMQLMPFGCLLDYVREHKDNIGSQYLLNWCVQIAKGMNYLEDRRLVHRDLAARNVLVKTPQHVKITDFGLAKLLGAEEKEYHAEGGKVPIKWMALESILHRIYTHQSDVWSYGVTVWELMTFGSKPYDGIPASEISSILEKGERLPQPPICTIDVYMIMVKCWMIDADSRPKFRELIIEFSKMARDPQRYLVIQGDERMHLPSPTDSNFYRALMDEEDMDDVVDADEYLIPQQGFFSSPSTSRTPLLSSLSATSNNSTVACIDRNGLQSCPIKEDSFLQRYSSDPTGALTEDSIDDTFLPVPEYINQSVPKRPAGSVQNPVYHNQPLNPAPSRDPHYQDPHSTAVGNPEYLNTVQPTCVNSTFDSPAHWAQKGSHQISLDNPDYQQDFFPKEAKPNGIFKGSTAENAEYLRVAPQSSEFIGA
pIC50: −log10 of the molar value.

{"Chemical string": "N#Cc1c(-c2ccc(Cl)cc2Cl)cc(-c2c[nH]c3ccccc23)[nH]c1=O", "Target system": "Epidermal growth factor receptor (Homo sapiens, UniProt P00533, T790M)", "pIC50": 7.16}

----------
test system: RXF 393; assay: cells; type: functional; details: Homo sapiens, RXF 393, 96 h, time 4 day, read-out: GI
Description: Growth inhibition of human RXF 393 cells at 10 uM incubated for 4 days by MTT assay relative to control
Some molecules, each annotated with its measured inhibition of growth at 10 µM.

{"Chemical string": "N#Cc1c(-c2ccccc2[N+](=O)[O-])cc(-c2c[nH]c3ccccc23)[nH]c1=O", "Units": "%", "inhibition of growth at 10 µM": 64.8}
{"Chemical string": "N#Cc1c(-c2cccc(Cl)c2)cc(-c2c[nH]c3ccccc23)[nH]c1=O", "Units": "%", "inhibition of growth at 10 µM": 67.5}
{"Chemical string": "N#Cc1c(-c2ccccc2Cl)cc(-c2c[nH]c3ccccc23)[nH]c1=O", "Units": "%", "inhibition of growth at 10 µM": 51.3}
{"Chemical string": "N#Cc1c(-c2ccc(C(F)(F)F)cc2)cc(-c2c[nH]c3ccccc23)[nH]c1=O", "Units": "%", "inhibition of growth at 10 µM": 71.6}
{"Chemical string": "N#Cc1c(-c2cccnc2)cc(-c2c[nH]c3ccccc23)[nH]c1=O", "Units": "%", "inhibition of growth at 10 µM": -0.69}
{"Chemical string": "N#Cc1c(-c2ccc(Cl)c(Cl)c2)cc(-c2c[nH]c3ccccc23)[nH]c1=O", "Units": "%", "inhibition of growth at 10 µM": 75.8}
{"Chemical string": "N#Cc1c(-c2cccc(Cl)c2Cl)cc(-c2c[nH]c3ccccc23)[nH]c1=O", "Units": "%", "inhibition of growth at 10 µM": 63.2}
{"Chemical string": "N#Cc1c(-c2ccc(O)c(O)c2)cc(-c2c[nH]c3ccccc23)[nH]c1=O", "Units": "%", "inhibition of growth at 10 µM": 11}
{"Chemical string": "N#Cc1c(-c2cccc([N+](=O)[O-])c2)cc(-c2c[nH]c3ccccc23)[nH]c1=O", "Units": "%", "inhibition of growth at 10 µM": 16.9}
{"Chemical string": "COc1cc(-c2cc(-c3c[nH]c4ccccc34)[nH]c(=O)c2C#N)ccc1O", "Units": "%", "inhibition of growth at 10 µM": 65}
{"Chemical string": "N#Cc1c(-c2ccc(Cl)cc2Cl)cc(-c2c[nH]c3ccccc23)[nH]c1=O", "Units": "%", "inhibition of growth at 10 µM": 58.4}
{"Chemical string": "N#Cc1c(-c2ccc(F)c(F)c2)cc(-c2c[nH]c3ccccc23)[nH]c1=O", "Units": "%", "inhibition of growth at 10 µM": 65.7}

----------
test system: HOP-92; assay: cells; type: functional; conditions: Homo sapiens, HOP-92, 96 h, time 4 day, read-out: GI
Description: Growth inhibition of human HOP-92 cells at 10 uM incubated for 4 days by MTT assay relative to control
Measurement name: inhibition of growth at 10 µM

{"Chemical string": "COc1cc(-c2cc(-c3c[nH]c4ccccc34)[nH]c(=O)c2C#N)ccc1O", "Measurement name": "inhibition of growth at 10 µM", "Result value": "53.5%"}
{"Chemical string": "N#Cc1c(-c2cccc([N+](=O)[O-])c2)cc(-c2c[nH]c3ccccc23)[nH]c1=O", "Measurement name": "inhibition of growth at 10 µM", "Result value": "9.93%"}
{"Chemical string": "N#Cc1c(-c2ccc(Cl)c(Cl)c2)cc(-c2c[nH]c3ccccc23)[nH]c1=O", "Measurement name": "inhibition of growth at 10 µM", "Result value": "73.3%"}
{"Chemical string": "N#Cc1c(-c2cccnc2)cc(-c2c[nH]c3ccccc23)[nH]c1=O", "Measurement name": "inhibition of growth at 10 µM", "Result value": "13%"}
{"Chemical string": "N#Cc1c(-c2ccc(O)c(O)c2)cc(-c2c[nH]c3ccccc23)[nH]c1=O", "Measurement name": "inhibition of growth at 10 µM", "Result value": "31.2%"}
{"Chemical string": "N#Cc1c(-c2ccc(C(F)(F)F)cc2)cc(-c2c[nH]c3ccccc23)[nH]c1=O", "Measurement name": "inhibition of growth at 10 µM", "Result value": "56.7%"}
{"Chemical string": "N#Cc1c(-c2ccc(Cl)cc2Cl)cc(-c2c[nH]c3ccccc23)[nH]c1=O", "Measurement name": "inhibition of growth at 10 µM", "Result value": "79.8%"}
{"Chemical string": "N#Cc1c(-c2cccc(Cl)c2Cl)cc(-c2c[nH]c3ccccc23)[nH]c1=O", "Measurement name": "inhibition of growth at 10 µM", "Result value": "77.8%"}
{"Chemical string": "N#Cc1c(-c2ccccc2[N+](=O)[O-])cc(-c2c[nH]c3ccccc23)[nH]c1=O", "Measurement name": "inhibition of growth at 10 µM", "Result value": "68.5%"}
{"Chemical string": "N#Cc1c(-c2cccc(Cl)c2)cc(-c2c[nH]c3ccccc23)[nH]c1=O", "Measurement name": "inhibition of growth at 10 µM", "Result value": "38.6%"}
{"Chemical string": "N#Cc1c(-c2ccc(F)c(F)c2)cc(-c2c[nH]c3ccccc23)[nH]c1=O", "Measurement name": "inhibition of growth at 10 µM", "Result value": "53.1%"}
{"Chemical string": "N#Cc1c(-c2ccccc2Cl)cc(-c2c[nH]c3ccccc23)[nH]c1=O", "Measurement name": "inhibition of growth at 10 µM", "Result value": "55.1%"}

----------
molecular target: Hepatocyte growth factor receptor (Homo sapiens)
Sequence (P08581 whole entry): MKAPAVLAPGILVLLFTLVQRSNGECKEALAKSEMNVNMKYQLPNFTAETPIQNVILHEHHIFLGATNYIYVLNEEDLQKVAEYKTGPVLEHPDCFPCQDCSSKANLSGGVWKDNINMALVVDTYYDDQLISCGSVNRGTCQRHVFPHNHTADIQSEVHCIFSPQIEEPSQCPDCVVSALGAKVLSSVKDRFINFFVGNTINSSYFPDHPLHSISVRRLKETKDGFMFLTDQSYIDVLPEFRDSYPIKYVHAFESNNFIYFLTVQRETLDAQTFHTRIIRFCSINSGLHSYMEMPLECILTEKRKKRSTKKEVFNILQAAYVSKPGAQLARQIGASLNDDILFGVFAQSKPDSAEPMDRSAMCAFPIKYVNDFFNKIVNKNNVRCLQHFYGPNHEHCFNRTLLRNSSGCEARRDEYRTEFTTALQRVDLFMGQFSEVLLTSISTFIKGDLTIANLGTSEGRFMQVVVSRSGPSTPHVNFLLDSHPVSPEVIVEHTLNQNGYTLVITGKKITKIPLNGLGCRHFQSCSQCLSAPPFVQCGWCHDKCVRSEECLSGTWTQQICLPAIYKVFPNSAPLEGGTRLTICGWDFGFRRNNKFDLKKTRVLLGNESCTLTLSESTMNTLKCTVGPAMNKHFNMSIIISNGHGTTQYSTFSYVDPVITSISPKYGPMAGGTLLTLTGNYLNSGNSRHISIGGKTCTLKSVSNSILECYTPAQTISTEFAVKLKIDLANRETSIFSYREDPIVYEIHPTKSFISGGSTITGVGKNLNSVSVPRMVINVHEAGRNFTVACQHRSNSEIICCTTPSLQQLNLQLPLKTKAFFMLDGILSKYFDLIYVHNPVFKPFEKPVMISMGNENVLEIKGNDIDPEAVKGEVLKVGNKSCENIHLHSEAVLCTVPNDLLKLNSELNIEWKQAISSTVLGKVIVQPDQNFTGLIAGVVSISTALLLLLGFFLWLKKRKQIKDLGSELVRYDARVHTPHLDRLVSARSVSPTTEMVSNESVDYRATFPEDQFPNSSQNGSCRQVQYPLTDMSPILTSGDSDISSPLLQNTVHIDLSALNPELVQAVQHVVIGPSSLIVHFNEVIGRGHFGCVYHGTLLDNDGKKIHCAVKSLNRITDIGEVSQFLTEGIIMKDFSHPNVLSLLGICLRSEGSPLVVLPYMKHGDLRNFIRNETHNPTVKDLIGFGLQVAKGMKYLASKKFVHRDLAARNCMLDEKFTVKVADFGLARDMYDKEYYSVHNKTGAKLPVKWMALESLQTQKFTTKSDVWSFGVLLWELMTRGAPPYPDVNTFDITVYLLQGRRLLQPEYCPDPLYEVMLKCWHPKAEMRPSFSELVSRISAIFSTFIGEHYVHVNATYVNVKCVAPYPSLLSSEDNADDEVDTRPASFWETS

{"Molecule": "CCOc1ccn(-c2ccc(F)cc2)c(=O)c1C(=O)Nc1ccc(Oc2ccnc(N)c2Cl)c(F)c1 [BMS-777607]", "Target system": "Hepatocyte growth factor receptor (Homo sapiens)", "Units": "nM", "IC50": 128}

----------
biological target: Serine/threonine-protein kinase B-raf (Homo sapiens, UniProt P15056, V600E); experiment: Inhibition of B-RAF V600E mutant (unknown origin)
Sequence (P15056 2-766 V600E limits assumed): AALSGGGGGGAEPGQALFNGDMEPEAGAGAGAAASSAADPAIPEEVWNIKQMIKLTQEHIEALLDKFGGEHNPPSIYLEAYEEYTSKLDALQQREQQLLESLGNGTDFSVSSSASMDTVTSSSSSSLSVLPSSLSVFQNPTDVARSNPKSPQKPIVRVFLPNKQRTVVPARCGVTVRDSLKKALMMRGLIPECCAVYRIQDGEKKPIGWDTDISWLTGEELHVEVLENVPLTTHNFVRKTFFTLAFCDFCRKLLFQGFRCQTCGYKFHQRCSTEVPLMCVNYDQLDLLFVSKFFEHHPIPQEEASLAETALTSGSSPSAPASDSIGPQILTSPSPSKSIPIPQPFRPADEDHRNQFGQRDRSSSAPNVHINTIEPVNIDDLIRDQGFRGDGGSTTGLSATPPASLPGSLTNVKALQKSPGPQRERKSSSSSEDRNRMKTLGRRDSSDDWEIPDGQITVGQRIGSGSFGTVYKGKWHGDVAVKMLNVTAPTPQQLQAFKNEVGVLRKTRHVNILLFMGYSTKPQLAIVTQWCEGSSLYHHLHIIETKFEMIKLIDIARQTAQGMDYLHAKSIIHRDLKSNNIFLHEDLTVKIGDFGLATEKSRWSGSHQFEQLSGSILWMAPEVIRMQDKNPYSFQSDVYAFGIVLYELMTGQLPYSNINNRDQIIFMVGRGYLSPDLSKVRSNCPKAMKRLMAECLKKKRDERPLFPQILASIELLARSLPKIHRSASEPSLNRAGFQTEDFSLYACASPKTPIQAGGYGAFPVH
pIC50: −log10 of the molar value.

{"Chemical string": "N#Cc1c(-c2ccc(Cl)cc2Cl)cc(-c2c[nH]c3ccccc23)[nH]c1=O", "pIC50": 7.08}

----------
test: Selectivity index, ratio of GI50 for cytotoxicity against human PCS-800-011 cells to GI50 for cytotoxicity against human SR cells; assay type: toxicity, cell-based; conditions: PCS-800-011 cells versus SR cells, read-out: RatioGI50
Measurement name: selectivity ratio

{"Chemical string": "N#Cc1c(-c2ccc(Cl)c(Cl)c2)cc(-c2c[nH]c3ccccc23)[nH]c1=O", "Result value": 8.02}
{"Chemical string": "N#Cc1c(-c2cccc(Cl)c2Cl)cc(-c2c[nH]c3ccccc23)[nH]c1=O", "Result value": 3.74}
{"Chemical string": "N#Cc1c(-c2ccc(Cl)cc2Cl)cc(-c2c[nH]c3ccccc23)[nH]c1=O", "Result value": 18}

Numbers sourced from ChEMBL document CHEMBL5625197.
